Values compiled from paper PMC8151276.

# system.name: HTR5A (Homo sapiens, UniProt P47898)
# Construct: purchased Promega (in-house HiBiT-GPCR construct library, NanoBRET)
# Sequence (P47898 whole entry): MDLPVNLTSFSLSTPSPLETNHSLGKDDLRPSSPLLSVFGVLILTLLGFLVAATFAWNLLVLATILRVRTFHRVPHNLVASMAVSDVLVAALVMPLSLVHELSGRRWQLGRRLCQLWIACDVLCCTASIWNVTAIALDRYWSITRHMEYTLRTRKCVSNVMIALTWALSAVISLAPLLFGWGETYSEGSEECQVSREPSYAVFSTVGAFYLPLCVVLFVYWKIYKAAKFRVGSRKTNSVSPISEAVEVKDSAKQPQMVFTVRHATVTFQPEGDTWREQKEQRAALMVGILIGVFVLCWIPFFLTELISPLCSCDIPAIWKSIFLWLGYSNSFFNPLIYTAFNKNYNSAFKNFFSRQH
# assay.procedure: NanoBRET screen HiBiT-HTR5A in HEK293
# Assay type: binding
# experimental.setup: HTR5A; tracer 0.1μM
endpoint: NanoBRET Fold Response
// keep it numeric: no unit symbol after the value

Kindly state the measured NanoBRET Fold Response obtained for Cc1cc2c(s1)Nc1ccccc1N=C2N1CCN(CCCNC(=O)CCOCCOCCOCCOCCNC(=O)CCc2ccc3n2[B-](F)(F)[N+]2=C(c4ccc[nH]4)C=CC2=C3)CC1 [Olanzapine-a-2-NB590] with HTR5A (Homo sapiens, UniProt P47898).
1.06

Query for HTR5A (Homo sapiens, UniProt P47898): what NanoBRET Fold Response does the record show for CC(C)N(CC[C@H](c1ccccc1)c1cc(CCNC(=O)c2ccc(CNC(=O)CCc3ccc4n3[B-](F)(F)[N+]3=C(c5ccc[nH]5)C=CC3=C4)cc2)ccc1O)C(C)C [Tolterodine-BZ-NB590] ?
0.98

Short answer please: NanoBRET Fold Response, HTR5A (Homo sapiens, UniProt P47898), entry O=C(CCc1ccc2n1[B-](F)(F)[N+]1=C(c3ccc[nH]3)C=CC1=C2)NCCOCCOCCNC(=O)OCCOCCN1CCN(C2=Nc3ccccc3Sc3ccccc32)CC1 [Quetiapine-a-2-NB590]
0.96

Lab note: need NanoBRET Fold Response with HTR5A (Homo sapiens, UniProt P47898) for entry CC(C)N(CC[C@H](c1ccccc1)c1cc(CCNC(=O)CCOCCOCCOCCOCCNC(=O)CCc2ccc3n2[B-](F)(F)[N+]2=C(c4ccc[nH]4)C=CC2=C3)ccc1O)C(C)C [Tolterodine-2-NB590] , please look it up.
1.07

Quick check: NanoBRET Fold Response on HTR5A (Homo sapiens, UniProt P47898), item COc1ccccc1N1CCN(CCCCN2C(=O)c3ccc(CNC(=O)CCOCCOCCOCCOCCNC(=O)CCc4ccc5n4[B-](F)(F)[N+]4=C(c6ccc[nH]6)C=CC4=C5)cc3C2=O)CC1 [NAN-190-2-NB590] ?
0.96

What is its NanoBRET Fold Response for HTR5A (Homo sapiens, UniProt P47898)? Entry: CCCn1c(=O)c2[nH]c(-c3ccc(OCC(=O)NCCNC(=O)CCOCCNC(=O)c4ccc(CNC(=O)CCc5ccc6n5[B-](F)(F)[N+]5=C(c7ccc[nH]7)C=CC5=C6)cc4)cc3)nc2n(CCC)c1=O [XAC-3-NB590]
1.12

* * *

# system.name: CYSLTR2 (Homo sapiens, UniProt Q9NS75)
# Construct: purchased Promega (in-house HiBiT-GPCR construct library, NanoBRET)
# Sequence (Q9NS75 whole entry): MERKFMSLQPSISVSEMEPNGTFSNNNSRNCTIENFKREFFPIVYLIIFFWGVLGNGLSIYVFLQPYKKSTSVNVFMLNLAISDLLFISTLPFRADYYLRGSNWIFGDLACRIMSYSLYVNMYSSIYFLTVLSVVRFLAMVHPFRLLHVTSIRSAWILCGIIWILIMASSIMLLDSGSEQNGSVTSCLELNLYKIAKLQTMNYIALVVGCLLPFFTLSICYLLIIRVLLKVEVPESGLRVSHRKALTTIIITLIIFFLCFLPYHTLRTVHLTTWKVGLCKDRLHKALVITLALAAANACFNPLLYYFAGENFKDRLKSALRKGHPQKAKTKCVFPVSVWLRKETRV
# assay.procedure: NanoBRET screen HiBiT-CYSLTR2 in HEK293
# Type: binding
# experimental.setup: CYSLTR2; tracer 0.1μM
Please provide measured NanoBRET Fold Response for the entries that follow.
The answer should be a number; do not append a unit.

For the molecule shown here, `N#CN=C(NCCCOc1cccc(CN2CCCCC2)c1)NCCNC(=O)CCOCCOCCOCCOCCNC(=O)CCc1ccc2n1[B-](F)(F)[N+]1=C(c3ccc[nH]3)C=CC1=C2` , give the reported NanoBRET Fold Response.
1.05

Requested field: NanoBRET Fold Response. Item: `Cc1cc2c(s1)Nc1ccccc1N=C2N1CCN(CCCNC(=O)CCOCCOCCOCCOCCNC(=O)CCc2ccc3n2[B-](F)(F)[N+]2=C(c4ccc[nH]4)C=CC2=C3)CC1`
0.95

Which value of NanoBRET Fold Response has been reported for Cc1nc2n(c(=O)c1CCN1CCC(c3noc4cc(F)ccc34)CC1)CCCC2OC(=O)NCCOCCOCCOCCOCCNC(=O)CCc1ccc2n1[B-](F)(F)[N+]1=C(c3ccc[nH]3)C=CC1=C2 (centres unmarked) in the records?
0.97

Using the record for `CC(C)N(CC[C@H](c1ccccc1)c1cc(CCNC(=O)c2ccc(CNC(=O)CCc3ccc4n3[B-](F)(F)[N+]3=C(c5ccc[nH]5)C=CC3=C4)cc2)ccc1O)C(C)C` , report its NanoBRET Fold Response.
1.00

Entry `CCCn1c(=O)c2[nH]c(-c3ccc(OCC(=O)NCCNC(=O)CCOCCNC(=O)c4ccc(CNC(=O)CCc5ccc6n5[B-](F)(F)[N+]5=C(c7ccc[nH]7)C=CC5=C6)cc4)cc3)nc2n(CCC)c1=O` : reported NanoBRET Fold Response = ?
1.08

Would you kindly share the measured NanoBRET Fold Response for O=C(CCc1ccc2n1[B-](F)(F)[N+]1=C(c3ccc[nH]3)C=CC1=C2)NCc1ccc(C(=O)NCCOCCC(=O)N[C@@H]2CC[C@@]3(O)[C@H]4Cc5ccc(O)c6c5[C@@]3(CCN4CC3CC3)[C@H]2O6)cc1 [Naltrexone-3-NB590] ?
1.05

Need NanoBRET Fold Response of `COc1ccccc1N1CCN(CCCCN2C(=O)c3ccc(CNC(=O)CCOCCNC(=O)c4ccc(CNC(=O)CCc5ccc6n5[B-](F)(F)[N+]5=C(c7ccc[nH]7)C=CC5=C6)cc4)cc3C2=O)CC1` , thanks.
1.11

Look at this molecule and give its reported NanoBRET Fold Response. `CC(C)N(CC[C@H](c1ccccc1)c1cc(CCNC(=O)CCOCCOCCOCCOCCNC(=O)CCc2ccc3n2[B-](F)(F)[N+]2=C(c4ccc[nH]4)C=CC2=C3)ccc1O)C(C)C`
0.93

Tell me the measured NanoBRET Fold Response of `O=C(CCOCCOCCOCCOCCNC(=O)CCc1ccc2n1[B-](F)(F)[N+]1=C(c3ccc[nH]3)C=CC1=C2)NCCCN1CCN(C2=Nc3ccccc3Oc3ccc(Cl)cc32)CC1` , please.
0.91

Given the entry `CN(C)CCC=C1c2ccccc2CCc2ccc(C(=O)NCCNC(=O)CCOCCOCCOCCOCCNC(=O)CCc3ccc4n3[B-](F)(F)[N+]3=C(c5ccc[nH]5)C=CC3=C4)cc21` , report its measured NanoBRET Fold Response.
0.95

Reported NanoBRET Fold Response for `O=C(CCc1ccc2n1[B-](F)(F)[N+]1=C(c3ccc[nH]3)C=CC1=C2)NCCOCCOCCNC(=O)OCCOCCN1CCN(C2=Nc3ccccc3Sc3ccccc32)CC1` : what is it?
0.88
